- tgt: Recombinant human cathepsin A (Homo sapiens, UniProt P10619)
- Construct: Recombinant human cathepsin A (residues 29-480, with a C-terminal 10-His tag); 10-His (C)
- Sequence (P10619 29-326 limits assumed): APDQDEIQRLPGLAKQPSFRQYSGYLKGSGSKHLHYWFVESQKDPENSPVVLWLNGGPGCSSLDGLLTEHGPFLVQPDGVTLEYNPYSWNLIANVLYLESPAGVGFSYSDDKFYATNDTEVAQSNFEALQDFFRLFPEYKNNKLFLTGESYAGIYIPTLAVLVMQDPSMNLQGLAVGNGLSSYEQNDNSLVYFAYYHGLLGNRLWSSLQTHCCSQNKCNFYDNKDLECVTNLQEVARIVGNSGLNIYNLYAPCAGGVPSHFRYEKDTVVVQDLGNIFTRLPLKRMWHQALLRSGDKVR
- Sequence (P10619 327-480 limits assumed): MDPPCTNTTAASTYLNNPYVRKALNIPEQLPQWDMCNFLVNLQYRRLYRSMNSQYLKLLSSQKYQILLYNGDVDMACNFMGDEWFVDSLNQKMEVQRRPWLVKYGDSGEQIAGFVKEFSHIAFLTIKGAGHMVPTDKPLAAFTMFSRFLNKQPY
- experimental-details: Cathepsin A inhibitory activity
- particulars: activated recombinant human cathepsin A 833 ng/ml, Bodipy FL-labeled bradykinin substrate 2 μM, pH 5.5, room temperature
# label = yes if IC50 < 0.4 µM else no

Reference set, count: 6
Just wondering, is IC50 of O=C(O)C[C@H](NC(=O)c1csc(-c2ccccc2Cl)n1)c1ccccc1Cl [Example 29] below 0.4 µM?
yes

State whether 0.4 µM exceeds IC50 recorded for O=C(O)C[C@H](NC(=O)c1csc(-c2ccc(Cl)cc2)n1)c1ccccc1C(F)(F)F [Example 104] .
no

IC50 under 0.4 µM? Item: O=C(O)C[C@H](NC(=O)c1nc(-c2ccccc2)cs1)c1cccc(C(F)(F)F)c1 [Example 99]
no

In plain terms, does O=C(O)C[C@H](NC(=O)c1csc(-c2ccc(C(F)(F)F)cc2)n1)c1cccc(F)c1 [Example 50] come in under 0.4 µM for IC50?
no

Could you please tell me whether IC50 recorded for O=C(O)C[C@H](NC(=O)c1csc(-c2ccccc2Cl)n1)c1cccc(Cl)c1Cl [Example 73] is less than 0.4 µM?
yes

Confirm or reject: IC50 of O=C(O)C[C@H](NC(=O)c1csc(-c2cccc(Cl)c2Cl)n1)c1ccccc1Cl [Example 28] lies strictly below 0.4 µM
yes

***
Hi there! Is IC50 for O=C(O)C[C@H](NC(=O)c1csc(-c2cccc(Cl)c2)n1)c1ccccc1C(F)(F)F [Example 93] below 0.4 µM, do you know?
no

Determine whether this compound shows IC50 lower than 0.4 µM (ties excluded): O=C(NCC(C(=O)O)c1ccccc1)c1csc(-c2ccccc2)n1 (stereo not drawn) [Example 115]
no

----------
- tgt: Recombinant human cathepsin A (Homo sapiens, UniProt P10619)
- Construct: Recombinant human cathepsin A (residues 29-480, with a C-terminal 10-His tag); 10-His (C)
- experimental-details: Cathepsin A inhibitory activity
- particulars: activated recombinant human cathepsin A 833 ng/ml, Bodipy FL-labeled bradykinin substrate 2 μM, pH 5.5, room temperature
- From the text: a) Cathepsin A Inhibitory Activity Recombinant human cathepsin A (residues 29-480, with a C-terminal 10-His tag; R&D Systems, #1049-SE) was proteolytically activated with recombinant human cathepsin L (R&D Systems, #952-CY). […] Uncleaved substrate and product were then separated by a microfluidic capillary electrophoresis on a LabChip® 3000 Drug Discovery System (12-Sipper-Chip; Caliper Life Sciences) and quantified by determination of the respective peak areas. […]
pIC50 values by entry
Kindly note that pIC50 refers to -log10 of the concentration in mol/L and answer with the value alone.

Determine from records and report pIC50 for `O=C(O)C[C@H](NC(=O)c1csc(-c2ccccc2Cl)n1)c1cccc(F)c1`
6.59

Note down pIC50 recorded for O=C(O)CC(NC(=O)c1csc(-c2cccc(Cl)c2Cl)n1)C1CCCCC1 (stereo not drawn)
5.96

Complete the entry with pIC50 for `O=C(O)C[C@H](NC(=O)c1nc(-c2ccccc2)cs1)c1cccc(F)c1`
6.27

State its pIC50: Cc1ccccc1-c1nc(C(=O)NC(CC(=O)O)C2CCCCC2)cs1 (stereo not drawn)
6.09

Give the reported value of pIC50 for this record: `COc1cccc([C@H](CC(=O)O)NC(=O)c2csc(-c3ccccc3)n2)c1OC`
6.30

State its pIC50: `COc1ccc(-c2nc(C(=O)N[C@@H](CC(=O)O)c3ccccc3C)cs2)cc1`
6.43

Alright, here's another compound for you.
Give the reported value of pIC50 for this record: `Cc1ccccc1[C@H](CC(=O)O)NC(=O)c1csc(-c2ccc(Cl)cc2)n1`
6.92
